biological target: HLA-DR11 (human); test: competition ELISA, tracer HA 306-318
pIC50: −log10 of the molar value.
MEASURE: pIC50

> print(dat)
                                     binder  observed.measurement
1  DPHLPTLLLGTSGSGGDDDDPHGPVQLSYYD (modifications not checked) [D31D]                  4.60
2  ALWNLHGQALFLGIVL (modifications not checked) [A16L]                  4.96
3  ASSYAAAQRKLLTPV (modifications not checked) [A15V]                  8.40
